- Target under test: Hepatic sodium/bile acid cotransporter (Homo sapiens)
- Sequence (Q14973 whole entry): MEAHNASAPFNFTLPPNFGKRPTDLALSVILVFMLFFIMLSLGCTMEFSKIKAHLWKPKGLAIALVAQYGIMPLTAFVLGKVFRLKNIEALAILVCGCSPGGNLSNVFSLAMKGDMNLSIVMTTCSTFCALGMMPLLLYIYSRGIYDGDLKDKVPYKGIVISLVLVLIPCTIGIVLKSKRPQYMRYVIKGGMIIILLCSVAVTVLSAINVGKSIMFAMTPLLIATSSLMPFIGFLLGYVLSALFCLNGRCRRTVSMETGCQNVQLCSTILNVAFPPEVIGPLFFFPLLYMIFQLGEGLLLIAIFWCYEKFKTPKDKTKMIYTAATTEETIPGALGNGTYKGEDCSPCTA
- Protocol details: Inhibition of human NTCP-mediated [3H]-TCA uptake expressed in human HepG2 cells pretreated for 2 hrs followed by [3H]-TCA addition in absence of FBS
- Assay type: cell-based
Outcome measure: pIC50
Units for pIC50: none; it is -log10 of a concentration expressed in mol/L.

# Compound, Target under test, Quantitative result
records = [
    ("C[C@@H]1CCC(=O)NCCNC(=O)CC[C@@H](C)[C@H]2CC[C@H]3[C@@H]4[C@@H](O)C[C@@H]5C[C@@H](CC[C@]5(C)[C@H]4CC[C@]23C)n2cc(nn2)CO[C@@H]2CC[C@@]3(C)[C@@H](C2)C[C@H](O)[C@@H]2[C@@H]3CC[C@]3(C)[C@@H]1CC[C@@H]23", "Hepatic sodium/bile acid cotransporter (Homo sapiens)", 7.43),
    ("C[C@H](CCc1cn([C@@H]2CC[C@@]3(C)[C@@H](C2)C[C@H](O)[C@@H]2[C@@H]3CC[C@]3(C)[C@@H]([C@H](C)CCC(=O)NCCS(=O)(=O)O)CC[C@@H]23)nn1)[C@H]1CC[C@H]2[C@@H]3[C@@H](O)C[C@@H]4C[C@H](O)CC[C@]4(C)[C@H]3CC[C@]12C", "Hepatic sodium/bile acid cotransporter (Homo sapiens)", 7.61),
]

Note: attention shifts to another entry.
Kindly note: Hepatic sodium/bile acid cotransporter (Homo sapiens), C[C@@H]1CCC(=O)NC(C(=O)NCCS(=O)(=O)O)CNC(=O)CC[C@@H](C)[C@H]2CC[C@H]3[C@@H]4[C@@H](O)C[C@@H]5C[C@@H](CC[C@]5(C)[C@H]4CC[C@]23C)n2cc(nn2)CO[C@@H]2CC[C@@]3(C)[C@@H](C2)C[C@H](O)[C@@H]2[C@@H]3CC[C@]3(C)[C@@H]1CC[C@@H]23 (stereo partly drawn) , pIC50 value reported: 7.63

----------
Listed compounds paired with reported Activity
- Test system: Hepatitis delta virus
- Protocol details: Antiviral activity against HDV infected in human HepG2-NTCP cells assessed as reduction in intranuclear accumulation of HDV delta antigen at 5 uM incubated for 24 hrs followed by replacement with fresh medium and measured at day 5 post infection by DAPI staining based confocal microscopic analysis (reference value: 12.1 %)
- Assay type: functional
- Parameters: scale not given: the % may be the effect or the level left
The answer is to be given in %; state only the numeric part.

Examples with answers:
# Compound structure string, Activity (%)
rows = [
    ("C[C@H](CCC(=O)O[C@@H]1CC[C@@]2(C)[C@@H](C1)C[C@H](O)[C@@H]1[C@@H]2CC[C@]2(C)[C@@H]([C@H](C)CCC(=O)NCCS(=O)(=O)O)CC[C@@H]12)[C@H]1CC[C@H]2[C@@H]3[C@@H](O)C[C@@H]4C[C@H](O)CC[C@]4(C)[C@H]3CC[C@]12C", 1.7),
    ("C[C@H](CCCN(CC[C@@H](C)[C@H]1CC[C@H]2[C@@H]3[C@@H](O)C[C@@H]4C[C@H](O)CC[C@]4(C)[C@H]3CC[C@]12C)CCS(=O)(=O)O)[C@H]1CC[C@H]2[C@@H]3[C@@H](O)C[C@@H]4C[C@H](O)CC[C@]4(C)[C@H]3CC[C@]12C", 4.6),
    ("C[C@H](CCC(=O)NCCS(=O)(=O)O)[C@H]1CC[C@H]2[C@@H]3[C@@H](O)C[C@@H]4C[C@H](OC(=O)CCCC(=O)O[C@@H]5CC[C@@]6(C)[C@@H](C5)C[C@H](O)[C@@H]5[C@@H]6CC[C@]6(C)[C@@H]([C@H](C)CCC(=O)NCCS(=O)(=O)O)CC[C@@H]56)CC[C@]4(C)[C@H]3CC[C@]12C", 2.8),
]

# input for lookup
Log: Hepatitis delta virus, compound C[C@H](CCC(=O)NCCS(=O)(=O)O)[C@H]1CC[C@H]2[C@@H]3[C@@H](O)C[C@@H]4C[C@H](NC(=O)CCCC(=O)N[C@@H]5CC[C@@]6(C)[C@@H](C5)C[C@H](O)[C@@H]5[C@@H]6CC[C@]6(C)[C@@H]([C@H](C)CCC(=O)NCCS(=O)(=O)O)CC[C@@H]56)CC[C@]4(C)[C@H]3CC[C@]12C , Activity = 2.5
